# TEST_SYSTEM: human pancreatic lipase (hPL) (Homo sapiens, UniProt P16233)
# Sequence (P16233 17-465): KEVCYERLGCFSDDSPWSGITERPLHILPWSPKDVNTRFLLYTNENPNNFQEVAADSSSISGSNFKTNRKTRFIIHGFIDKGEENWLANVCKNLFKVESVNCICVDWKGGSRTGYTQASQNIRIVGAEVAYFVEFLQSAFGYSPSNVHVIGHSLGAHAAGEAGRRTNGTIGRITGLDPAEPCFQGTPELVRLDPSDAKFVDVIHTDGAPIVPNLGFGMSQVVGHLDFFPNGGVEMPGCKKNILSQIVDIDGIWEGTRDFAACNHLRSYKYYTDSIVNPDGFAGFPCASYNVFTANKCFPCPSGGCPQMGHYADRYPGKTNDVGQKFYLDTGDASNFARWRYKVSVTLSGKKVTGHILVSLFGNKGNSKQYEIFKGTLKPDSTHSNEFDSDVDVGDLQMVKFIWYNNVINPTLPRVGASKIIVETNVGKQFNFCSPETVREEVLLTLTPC
PARAMETER_MEASURED: IC50 (µM)

1. O=c1c(O)c(-c2cc(O)c(O)c(O)c2)oc2cc(O)cc(O)c12	1.34
2. O=C1c2c(O)cc(O)cc2O[C@H](c2cc(O)c(O)c(O)c2)[C@H]1O [Dihydromyricetin]	34.3
3. O=C1c2c(O)cc(O)cc2O[C@H](c2cc(O)c(O)c(O)c2)[C@@H]1O [Iso-dihydromyricetin]	14.4
